Target or test system: steroid sulfatase (Homo sapiens, UniProt P08842)
Sequence (P08842 22-583): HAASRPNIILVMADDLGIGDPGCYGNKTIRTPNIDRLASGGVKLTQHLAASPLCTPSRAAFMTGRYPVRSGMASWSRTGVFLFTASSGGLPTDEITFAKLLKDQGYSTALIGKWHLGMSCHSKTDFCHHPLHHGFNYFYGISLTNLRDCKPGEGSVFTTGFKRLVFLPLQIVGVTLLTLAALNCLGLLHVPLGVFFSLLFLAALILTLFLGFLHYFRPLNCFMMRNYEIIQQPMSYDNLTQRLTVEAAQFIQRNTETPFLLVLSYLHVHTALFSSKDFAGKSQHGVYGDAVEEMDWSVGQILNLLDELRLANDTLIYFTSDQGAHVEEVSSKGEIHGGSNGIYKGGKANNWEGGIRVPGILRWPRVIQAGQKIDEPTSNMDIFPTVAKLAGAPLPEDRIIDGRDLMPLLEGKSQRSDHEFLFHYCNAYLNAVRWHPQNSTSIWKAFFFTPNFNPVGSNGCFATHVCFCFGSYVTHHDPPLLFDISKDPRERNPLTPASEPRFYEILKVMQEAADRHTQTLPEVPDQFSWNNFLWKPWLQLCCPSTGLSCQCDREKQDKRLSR
Protocol details: Steroid sulfatase inhibition in vitro (purified enzyme, 4-methylumbelliferyl sulfate cleavage, fluorescence)
Test settings: purified human placental steroid sulfatase, 0.5 mM 4-methylumbelliferyl sulfate, 37°, 1 hour; reference determined in parallel
pIC50: −log10 of the molar value.
Value type: pIC50

## Task Entry C[C@]12CC[C@@H]3c4ccc(OS(N)(=O)=O)cc4CC[C@H]3[C@@H]1CCC2=O [Estrone-3-O-sulfamate] : reported pIC50 = ?
## Result ~7.22
